Observed IC50 values for E. coli LpxC (Escherichia coli) are listed in what follows.

MOLECULE | IC50
O=c1[nH]cnc(CCc2ccc(C#Cc3ccc(CNC4CCOCC4)cc3)cc2)c1O [Compound 244] | 100 to 1000 nM
N#CCC1CCN(Cc2ccc(C#Cc3ccc(CC(C(=O)NCC(F)F)c4nc[nH]c(=O)c4O)cc3)cc2)CC1 (stereo not drawn) [Compound 152] | 100 to 1000 nM
O=c1[nH]cnc(CCc2ccc(C#Cc3ccc(CN4CCOCC4)cc3)c(F)c2)c1O [Compound 98] | < 10 nM
N#CC1CN(Cc2ccc(C#Cc3ccc(CC(C(=O)NCCF)c4nc[nH]c(=O)c4O)cc3)cc2)C1 (stereo not drawn) [Compound 165] | < 10 nM
N#CC1CN(Cc2ccc(C#Cc3ccc(CC(C(=O)NCC(F)F)c4nc[nH]c(=O)c4O)cc3)cc2)C1 (stereo not drawn) [Compound 149] | < 10 nM
CO[C@H]1CCN(Cc2ccc(C#Cc3ccc(CC(C(=O)NCC(F)F)c4nc[nH]c(=O)c4O)cc3)cc2)C1 (stereo partly drawn) [Compound 105] | 50 to 100 nM
O=c1[nH]cnc(C(CNCCF)Cc2ccc(C#Cc3ccc(CNC4CCOC4)cc3)cc2)c1O (stereo not drawn) [Compound 198] | 100 to 1000 nM
O=c1[nH]cnc(CCc2ccc(C#Cc3cccc(Cl)c3)cc2)c1O [Compound 248] | 100 to 1000 nM
C=CCNCC(Cc1ccc(C#Cc2ccc(CN3CCOCC3)cc2)cc1)c1nc[nH]c(=O)c1O (stereo not drawn) [Compound 56] | 10 to 50 nM
O=C(NCC(F)F)C(Cc1ccc(C#Cc2ccc(CN3CCOCC3)cc2)cc1)c1nc[nH]c(=O)c1O (stereo not drawn) [Compound 1] | < 10 nM
O=C(NC1CC(F)(F)C1)C(Cc1ccc(C#Cc2ccc(CN3CCOCC3)cc2)cc1)c1nc[nH]c(=O)c1O (stereo not drawn) [Compound 154] | 50 to 100 nM
CO[C@@H]1CCN(Cc2ccc(C#Cc3ccc(CC(C(=O)NCC(F)F)c4nc[nH]c(=O)c4O)cc3)cc2)C1 (stereo partly drawn) [Compound 106] | 100 to 1000 nM
N#CC1CN(Cc2ccc(C#Cc3ccc(CC(CNCCF)c4nc[nH]c(=O)c4O)cc3)cc2)C1 (stereo not drawn) [Compound 209] | 10 to 50 nM
O=C(NCC(Cc1ccc(C#Cc2ccc(CN3CCOCC3)cc2)cc1)c1nc[nH]c(=O)c1O)C(F)F (stereo not drawn) [Compound 15] | 10 to 50 nM
O=C(NCC(F)(F)F)C(Cc1ccc(C#Cc2ccc(CN3CCOCC3)cc2)cc1)c1nc[nH]c(=O)c1O (stereo not drawn) [Compound 2] | 10 to 50 nM
